These entries and their values trace back to patent US8889704B2.

- Experimental System: recombinant rat PIM-3 (Rattus norvegicus, UniProt O70444)
- Measurement Description: PIM-3 Assay (as Example A)
- Conditions Used: averaged IC50; 30 μM ATP, 3.75 μM PIM2tide, 0.5 nM PIM-3
pIC50: −log10 of the molar value. Where a name gives a salt, the structure may show the parent alone.
Recorded Metric: pIC50

{"Molecule": "COCCOc1ccc2ccc(-c3nnc4ccc([C@@H](N5C[C@@H](N)[C@H](OC)C5)C(F)(F)F)cn34)nc2c1 [Example 318]", "Experimental System": "recombinant rat PIM-3 (Rattus norvegicus, UniProt O70444)", "pIC50": 9.10}
{"Molecule": "COc1ccc2ccc(-c3nnc4ccc([C@@H](N5CC[C@H](N)C5)C(F)(F)F)cn34)nc2c1C [Example 124, hydrochloride]", "Experimental System": "recombinant rat PIM-3 (Rattus norvegicus, UniProt O70444)", "pIC50": 9.15}
{"Molecule": "CC(C)Oc1ccc2ccc(-c3nnc4ccc([C@@H](N5CC[C@H](N)C5)C(F)(F)F)cn34)nc2c1C1CC1 [Example 151, dihydrochloride]", "Experimental System": "recombinant rat PIM-3 (Rattus norvegicus, UniProt O70444)", "pIC50": 9.00}
